Source: patent US20240391923A1

# protocol: Metabolic stability test in hepatocytes, rat
# Type: in vitro ADME
# experimental parameters: hepatocytes (suspension), Table 5: metabolic stability in hepatocytes, up to 90 min, read-out: Metabolic half-life in rat liver microsome (T½, min)
Overview of recorded half-life at 1 μM for various compounds
// return numeric value only (unit: min, not printed)

# example entries with known answers
INSERT INTO measurements (compound, reported) VALUES
  ('Cn1cc2c(n1)c(=O)n(-c1cccnc1C1CC1)c1cc(Cl)c(F)cc21', 150),
  ('Cc1ncccc1-n1c(=O)c2nn(C)cc2c2ccc(C(F)(F)F)nc21 (single isomer, unassigned)', 51.1);

# next compound below
q: Report measured half-life at 1 μM; entry is `Cn1cc2c(n1)c(=O)n(-c1cccc(O)c1)c1nc(C(F)(F)F)ccc21`
a: 50.9
